Header: IC50 / UniProtKB Q06124 / multiple publications
READOUT: IC50

[
  {
    "COMPOUND": "CC1(CN)CCN(c2nc3[nH]nc(Oc4cccc(Cl)c4Cl)c3c(=O)[nH]2)CC1",
    "OBSERVED RESULT": "≤ 50 nM"
  },
  {
    "COMPOUND": "CC1(CN)CCN(c2ncc(Sc3cccc(NC(=O)c4c(O)nc5sccn5c4=O)c3Cl)[nH]c2=O)CC1",
    "OBSERVED RESULT": "≤ 50 nM"
  },
  {
    "COMPOUND": "Nc1nccc(Sc2cnc(N3CCC4(CC3)Oc3ccccc3[C@H]4N)c(=O)[nH]2)c1Cl",
    "OBSERVED RESULT": "≤ 50 nM"
  },
  {
    "COMPOUND": "C[C@@H]1OCC2(CCN(c3nc4[nH]nc(-c5ccccc5Cl)c4nc3CO)CC2)[C@@H]1N",
    "OBSERVED RESULT": "11 nM"
  },
  {
    "COMPOUND": "Cc1nc2c(-c3ccc4nn(C)c(Cl)c4c3Cl)n[nH]c2nc1N1CCC2(CCC[C@H]2N)CC1",
    "OBSERVED RESULT": "7.6 nM"
  },
  {
    "COMPOUND": "N[C@@H]1c2ccccc2CC12CCN(c1ncc(Sc3cccc(Cl)c3Cl)[nH]c1=O)CC2",
    "OBSERVED RESULT": "≤ 50 nM"
  },
  {
    "COMPOUND": "NC1c2nc(Cl)sc2CC12CCN(c1ncc(Sc3ccnc(Cl)c3Cl)[nH]c1=O)CC2 (centres unmarked)",
    "OBSERVED RESULT": "≤ 50 nM"
  },
  {
    "COMPOUND": "Cc1nc(N2CCC3(CC2)Cc2ccccc2[C@H]3N)n2ccnc2c1-c1cccnc1C(F)(F)F",
    "OBSERVED RESULT": "9.5 nM"
  }
]
